Molecular target: T1, CRBN, Q96SW2;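 also: pooled lentiviral library of zinc finger degron-EGFP fusions in mCherry-positive Jurkat cells, FACS-sorted after compound exposure, with degron abundance counted by next-generation sequencing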
T1 chain: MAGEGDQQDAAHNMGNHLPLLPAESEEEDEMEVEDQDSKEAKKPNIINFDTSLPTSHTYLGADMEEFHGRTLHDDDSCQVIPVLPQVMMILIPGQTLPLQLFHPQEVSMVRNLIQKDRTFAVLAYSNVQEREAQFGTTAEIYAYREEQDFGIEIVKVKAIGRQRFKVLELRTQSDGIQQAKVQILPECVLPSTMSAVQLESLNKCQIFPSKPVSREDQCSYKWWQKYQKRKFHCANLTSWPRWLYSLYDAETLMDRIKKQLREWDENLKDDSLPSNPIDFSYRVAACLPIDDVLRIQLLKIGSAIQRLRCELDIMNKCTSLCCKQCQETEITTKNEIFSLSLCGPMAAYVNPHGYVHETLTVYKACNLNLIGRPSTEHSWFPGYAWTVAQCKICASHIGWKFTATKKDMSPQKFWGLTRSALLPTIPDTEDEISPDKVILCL
Experiment: log2 fold change of degron read counts, EGFP-low vs EGFP+ sorted cells (limma voom), compound-induced degradation; higher = more compound-induced degradation of the degron-EGFP fusion; degrons are variants of IKZF1/3 zinc finger 2; compound dose not given here
Conditions: Jurkat; 18 h; compound: compound 33 (diphenyl IMiD analogue)
The full ranking holds about 8,300 sequences; the median of “log2 fold change of degron read counts, EGFP-low vs EGFP+ sorted cells (limma voom), compound-induced degradation” is about -1.1, and the highest 2% start at about 3.2. What follows is part of a selection rich in the highest values, with near analogues and random picks from the rest.
READOUT_TYPE: log2 fold change of degron read counts
One number for each entry.

Form field log2 fold change of degron read counts, entry FFCNQCGAAFTQKGNLLRHIKL [46F_47F_49N_50Q_52G_53A_54A_55F_67L_, Q9UKT9] : -0.811

Kindly note the recorded log2 fold change of degron read counts for FKCEICGRWFTQKGNLLRHIKL [46F_47K_49E_50I_52G_53R_54W_55F_67L_, Q9UKT9] , which is -3.01

Query FMCPICGAQFTQKGNLLRHIKL [46F_47M_49P_50I_52G_53A_54Q_55F_67L_, Q9UKT9] yields log2 fold change of degron read counts of 2.62

get_value(item= FMCNICGAKFTQKGNLLRHIKL [46F_47M_49N_50I_52G_53A_54K_55F_67L_, Q9UKT9] , readout=log2 fold change of degron read counts) returns -0.574

log2 fold change of degron read counts in this record for LQCEICGFACTQKGNLLRHIKL [46L_47Q_49E_50I_52G_53F_54A_55C_67L_, Q9UKT9] : 1.57

The following sequences each have a reported value; give each one's log2 fold change of degron read counts.
1. FVCPICGAKFTQKGNLLRHIKL [46F_47V_49P_50I_52G_53A_54K_55F_67L_, Q9UKT9]
2. FTCEICGRFFTQKGNLLRHIKL [46F_47T_49E_50I_52G_53R_54F_55F_67L_, Q9UKT9]
3. FHCPVCGAMFTQKGNLLRHIKL [46F_47H_49P_50V_52G_53A_54M_55F_67L_, Q9UKT9]
4. LCCEICGFACTQKGNLLRHIKL [46L_47C_49E_50I_52G_53F_54A_55C_67L_, Q9UKT9]
5. FLCPVCGAEFTQKGNLLRHIKL [46F_47L_49P_50V_52G_53A_54E_55F_67L_, Q9UKT9]

Response line:
-0.152
-1.26
1.42
1
1.21

Take each entry in turn and give its log2 fold change of degron read counts.
1. FKCNQCGHRFTQKGNLLRHIKL [46F_47K_49N_50Q_52G_53H_54R_55F_67L_, Q9UKT9]
2. FFCPICGAQFTQKGNLLRHIKL [46F_47F_49P_50I_52G_53A_54Q_55F_67L_, Q9UKT9]
3. FWCNVCGANFTQKGNLLRHIKL [46F_47W_49N_50V_52G_53A_54N_55F_67L_, Q9UKT9]
4. FACPICGAQFTQKGNLLRHIKL [46F_47A_49P_50I_52G_53A_54Q_55F_67L_, Q9UKT9]
5. FGCPQCGAMFTQKGNLLRHIKL [46F_47G_49P_50Q_52G_53A_54M_55F_67L_, Q9UKT9]

Response line:
1: -2.56; 2: 2.49; 3: 1.36; 4: 1.68; 5: 0.259

Report log2 fold change of degron read counts for each item below.
1. FQCPICGHNFTQKGNLLRHIKL [46F_47Q_49P_50I_52G_53H_54N_55F_67L_, Q9UKT9]
2. FVCEICGRPFTQKGNLLRHIKL [46F_47V_49E_50I_52G_53R_54P_55F_67L_, Q9UKT9]

Response line:
1: -1.21; 2: -1.28
